- Tested on: Voltage-dependent L-type calcium channel subunit alpha-1D (CaV1.3) ICDI/IQ interaction
- testMethodNotes: Disruptors of the CACNA1D IQ motif to Ca2+-dependent inactivation inhibitor domain association, primary screening, Förster resonance energy transfer in intact living cells, one concentration (AID 743397)
- conditionSummary: HEK cells, CFP/YFP FRET ICDI-IQ, plate reader, 10 min; at 12.3 µM; percent FRET-ratio fall versus neutral wells
Screen size: about 340,000 compounds; about 330 (0.097%) were called active.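 How the source made its calls: active means mean replicate inhibition of at least 30% and at least 1% of replicates passing that level; inconclusive means only one of the two criteria is met; inactive means neither criterion is met.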 The sample holds actives, similar compounds and a random draw of the others, so the mix is not that of the screen.
Returns: one label drawn from active, inactive

[Q] Given CC(C)(C)c1ccc(S(=O)(=O)NCC2CCN(C(=O)C(=O)c3cc4ccccc4o3)CC2)cc1 , state the outcome it received in this test.
[A] inactive

[Q] Given Cc1cc2c(nc1C)CCCN2C , state the outcome it received in this test.
[A] inactive

[Q] Given COC(=O)c1c(-c2ccc(OC)cc2)c2c(c3c4ccccc4n(S(=O)(=O)c4ccc(C)cc4)c13)C(=O)N(C)C2 , state the outcome it received in this test.
[A] inactive

[Q] Given CC(C)[C@@H](C)/C=C/[C@@H](C)[C@H]1CC[C@@H]2[C@]1(C)CCC1[C@]23C=C[C@]2(C[C@@H](O)CC[C@]12C)N(c1ccc([N+](=O)[O-])cn1)O3 (stereo partly drawn) , state the outcome it received in this test.
[A] inactive

[Q] Given C=CCN=C1NC(c2cccc(C(F)(F)F)c2)C(C(=O)OC)=C(C)N1C (stereo not drawn) , state the outcome it received in this test.
[A] inactive

src = PubChem BioAssay AID743397
